Tested on: MCF7 cell line (human breast adenocarcinoma)
Experiment: MTT cytotoxicity assay, MCF7
Format: cell-based
Conditions: MCF7, cancer cell line, 24 h, MTT
measured_parameter: IC50 (µM)
The reply should be a number in µM, with the unit left off.

Ask: Data request, read-out IC50, for N.N.[Cl][Pt][Cl] [Cisplatin, cisplatin, reference compound]
Result: 50.9

----------
System: A549 cell line (human lung adenocarcinoma)
Test: MTT cytotoxicity assay, A549
Format: cell-based
Conditions: Homo sapiens, A549, 24 h
Measured IC50 of individual entries

[
  {
    "smiles": "CCc1ccccn1",
    "reported_result": "> 1000 µM"
  }
]

Ask: Data request, read-out IC50, for OCCc1ccccn1
Result: > 1000 µM

Ask: Data request, read-out IC50, for OCc1ccccn1
Result: > 1000 µM

----------
Tested on: MCF7 cell line (human breast adenocarcinoma)
Test: MTT cytotoxicity assay, MCF7
Type: cell-based
Conditions: Homo sapiens, MCF7, 24 h
Measured IC50 of individual entries

Past entries and their recorded results:
[
  {
    "smiles": "OCc1ccccn1",
    "IC50": "> 1 mM"
  },
  {
    "smiles": "OCCc1ccccn1",
    "IC50": "> 1 mM"
  }
]

Consider the record given below.
Ask: Data request, read-out IC50, for CCc1ccccn1
Result: > 1 mM

----------
Test system: DU-145 cell line (human prostate carcinoma)
Assay: MTT cytotoxicity assay, DU-145
Type: cell-based
Details: Homo sapiens, DU-145, 24 h
measured_parameter: IC50

[
  {
    "smiles": "OCCc1ccccn1",
    "reported_result": "> 1000 µM"
  },
  {
    "smiles": "CCc1ccccn1",
    "reported_result": "> 1000 µM"
  }
]

Consider the record given below.
Ask: Data request, read-out IC50, for OCc1ccccn1
Result: > 1000 µM
